# measured-on: Human immunodeficiency virus type 1 integrase (Human immunodeficiency virus 1, UniProt Q7ZJM1)
# Sequence (Q7ZJM1 whole entry): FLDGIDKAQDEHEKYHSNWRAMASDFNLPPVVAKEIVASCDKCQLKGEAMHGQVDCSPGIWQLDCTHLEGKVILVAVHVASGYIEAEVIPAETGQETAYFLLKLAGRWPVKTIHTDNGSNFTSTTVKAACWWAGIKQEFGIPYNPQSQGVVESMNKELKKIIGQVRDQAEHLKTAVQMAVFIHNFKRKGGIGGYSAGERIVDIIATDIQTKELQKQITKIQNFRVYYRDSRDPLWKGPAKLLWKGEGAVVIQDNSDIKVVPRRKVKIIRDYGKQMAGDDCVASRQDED
# assay-overview: Compound concentration required to reduce HIV-1 Integrase 3'-processing activity by 50%
# condition-summary: read-out: IC50
measurement-label: IC50 (nM)
Answers are plain numbers, in nM.

GET /values?readout=IC50&item= "O=C1/C(=C/c2ccc(O)c(O)c2)CSC/C1=C\c1ccc(O)c(O)c1"
200

Query compound follows.
GET /values?readout=IC50&item= "O=C(/C=C(O)/C=C/c1ccc(O)c(O)c1)/C=C/c1ccc(O)c(O)c1"
700

###

# System: KB
# assay-overview: Compound concentration required to reduce the exponential growth of KB cells by 50%
# Assay type: functional
# condition-summary: Homo sapiens
// returns Not met unless CC50 is strictly below 10 µM, in which case Met

Consider the following illustrative entries.
Hello, is CC50 of the following molecule strictly smaller than 10 µM? "O=C(/C=C/c1ccc(O)c(O)c1)c1ccc(O)cc1"
Met

Hello, is CC50 of the following molecule strictly smaller than 10 µM? "COc1ccc(/C=C/C(=O)/C=C(O)/C=C/c2ccc(OC)c(OC)c2)cc1OC"
Met

Hello, is CC50 of the following molecule strictly smaller than 10 µM? "O=C1/C(=C/c2ccc(O)c(O)c2)COC/C1=C\c1ccc(O)c(O)c1"
Not met

---
Hello, is CC50 of the following molecule strictly smaller than 10 µM? "COc1cc(/C=C/C(=O)/C=C/c2ccc(O)c(OC)c2)ccc1O"
Met

Hello, is CC50 of the following molecule strictly smaller than 10 µM? "O=C(/C=C/c1ccc(O)c(O)c1)c1ccc(O)cc1O"
Met
